# Test system: NCI-H226 lung
# test.name: NCI tumour cell line growth inhibition, 48 h
Some molecules, each annotated with its measured TGI.

>  <molecule>
CCN(Cc1c(F)cccc1C(F)(F)F)c1ccc(CO)c(Cl)c1

>  <TGI>
0.154 µM

$$$$
>  <molecule>
N#Cc1cc([N+](=O)[O-])ccc1NC(=O)C(=O)Nn1c(=S)[nH]c2ccccc2c1=O

>  <TGI>
> 100 µM

$$$$
>  <molecule>
CCCC(CCC(=O)O)(CCC(=O)O)[N+](=O)[O-]

>  <TGI>
> 100 µM

$$$$
>  <molecule>
COc1cc(/C=C/[N+](=O)[O-])cc(OC)c1

>  <TGI>
46.1 µM

$$$$
>  <molecule>
Nc1nc(N)c2c(n1)NC(c1ccc(Cl)cc1)C1CCc3ccccc3C1=N2 (configuration not stated)

>  <TGI>
27.8 µM

$$$$
>  <molecule>
CN(C)c1ccc(/C=C(\C#N)C(=O)c2ccccc2)cc1Br

>  <TGI>
> 100 µM

$$$$
>  <molecule>
Clc1cccc(C=NC23CC4CC(CC(C4)C2)C3)c1Cl

>  <TGI>
> 10 µM

$$$$
>  <molecule>
O=C(O)[C@@H](Cc1ccccc1)NS(=O)(=O)c1ccc(-c2ccccc2)cc1

>  <TGI>
> 100 µM

$$$$
>  <molecule>
COc1cccc(/C=C/C(=O)c2cc3c(N)c(C(=O)Nc4ccccc4)sc3nc2C)c1

>  <TGI>
2.75 µM

$$$$
>  <molecule>
Cc1cc(C(=O)NOCCO)c(Nc2ccc(I)cc2F)n(C)c1=O

>  <TGI>
> 100 µM

$$$$
>  <molecule>
C[C@]12CC[C@@H]3c4cc(C=O)c(OCc5ccccc5)cc4CC[C@H]3[C@@H]1CCC2OCc1ccccc1 (some centres not stated)

>  <TGI>
> 100 µM

$$$$
>  <molecule>
CC1(/C=C/c2ccc(-c3ccccc3)cc2)CCn2cnc3ncnc(c32)N1O (configuration not stated)

>  <TGI>
20.2 µM

$$$$
>  <molecule>
COc1ccc(/C=N/NC(=O)NCCNCCO)cc1

>  <TGI>
> 100 µM

$$$$
>  <molecule>
Clc1cc2ns[s+]c2cc1Cl

>  <TGI>
> 100 µM

$$$$
>  <molecule>
COc1cc(N2CCN(C(C)C)CC2)ccc1Nc1nc(Nc2ccc(F)cc2C(N)=O)c2cc[nH]c2n1

>  <TGI>
6.65 µM

$$$$
>  <molecule>
COc1ccc(C2[C@@H](Cl)C(=O)N2c2ccc(OC)cc2)cc1 (some centres not stated)

>  <TGI>
> 100 µM

$$$$
>  <molecule>
CC1O[C@@H]2CCCCC(=O)[C@]2(C)[C@H]1C (some centres not stated)

>  <TGI>
> 100 µM

$$$$

The measured values listed here are drawn from PubChem BioAssay (NCI).
